Origin of the recorded values: paper PMC12006963

The following molecules are shown together with reported AUC values.
test: Dog MTD with pharmacokinetics study; assay type: in vivo; settings: dog MTD, 300 mg/kg PO of 5; plasma
property: AUC (ng·h/mL)

[[record]]
molecule = "[2H]C1([2H])c2ncccc2C(=O)N1Cc1c(F)cc(-c2cccc3nn(C([2H])([2H])[2H])cc23)cc1F"
property = "AUC"
reported_result = 68000

[[record]]
molecule = "[2H]C1(O)c2ncccc2C(=O)N1Cc1c(F)cc(-c2cccc3nn(C([2H])([2H])[2H])cc23)cc1F (centres unmarked)"
property = "AUC"
reported_result = 14100


---

test: In vivo IV/PO pharmacokinetics, NHP; settings: cynomolgus monkey, plasma, 1 mg/kg; NHP (cyno); dose iv/po mg/kg: 1 1/3, 5 1/5; read-out: elimination t1/2 (converted)
property: half-life

[[record]]
molecule_smiles = "Cn1cc2c(-c3cc(F)c(CN4Cc5ncccc5C4=O)c(F)c3)cccc2n1"
reported_result = "4.3 h"

[[record]]
molecule_smiles = "[2H]C1([2H])c2ncccc2C(=O)N1Cc1c(F)cc(-c2cccc3nn(C([2H])([2H])[2H])cc23)cc1F"
reported_result = "4.6 h"


---

test system: rM2-5; experiment: Muscarinic selectivity, rat M2-5; assay type: cell-based
The following molecules are shown together with reported EC50 values.
property: EC50

[[record]]
molecule = "[2H]C1([2H])c2ncccc2C(=O)N1Cc1c(F)cc(-c2cccc3nn(C)cc23)cc1F [compound 3]"
property = "EC50"
reported_result = "> 30 µM"

[[record]]
molecule = "[2H]C1([2H])c2ncccc2C(=O)N1Cc1c(F)cc(-c2cccc3nn(C([2H])([2H])[2H])cc23)cc1F [compound 5]"
property = "EC50"
reported_result = "> 30 µM"


---

Test: Dog MTD with pharmacokinetics study
Format: in vivo
Conditions: dog MTD, 1000 mg/kg PO of 5; plasma
Source text: To this end, we prepared a 200 g lot of PAM 5 and performed, in parallel, a dog maximum tolerated dose (MTD) with a pharmacokinetics study and a 14-day rat exploratory toxicology and toxicokinetic study, quantifying plasma Cmax and AUC for both parent 5 and metabolite 6. […] Moreover, while exposure increased with dose, it was nonlinear. […]
property: Cmax (ng/mL)

[[record]]
compound = "[2H]C1([2H])c2ncccc2C(=O)N1Cc1c(F)cc(-c2cccc3nn(C([2H])([2H])[2H])cc23)cc1F"
property = "Cmax"
reported_result = 5560

[[record]]
compound = "[2H]C1(O)c2ncccc2C(=O)N1Cc1c(F)cc(-c2cccc3nn(C([2H])([2H])[2H])cc23)cc1F (centres unmarked)"
property = "Cmax"
reported_result = 972


---

The following compounds are shown together with reported Cmax values.
assay: Dog MTD with pharmacokinetics study; type: in vivo; conditions: dog MTD, 300 mg/kg PO of 5; plasma
property: Cmax (ng/mL)

[[record]]
compound = "[2H]C1([2H])c2ncccc2C(=O)N1Cc1c(F)cc(-c2cccc3nn(C([2H])([2H])[2H])cc23)cc1F [compound 5]"
property = "Cmax"
measurement_units = "ng/mL"
reported_result = 3620

[[record]]
compound = "[2H]C1(O)c2ncccc2C(=O)N1Cc1c(F)cc(-c2cccc3nn(C([2H])([2H])[2H])cc23)cc1F (centres unmarked) [compound 6]"
property = "Cmax"
measurement_units = "ng/mL"
reported_result = 818


---

Assay: Plasma protein binding, equilibrium dialysis (cyno)
Assay type: in vitro ADME
Details: cynomolgus monkey, pH 7.4, read-out: fu,plasma
Protocol: page 5: Drug Metabolism Methods: In vitro Plasma protein binding and Brain homogenate binding: Determination of fraction unbound (f u) in plasma was conducted in vitro via equilibrium dialysis using HTDialysis (HTD) membrane plates. The top half of the plate was filled with 100 uL of Dubelco’s Phosphate Buffered Saline, pH 7.4 (DPBS). […] The unbound fraction (f u) was calculated following the equation below, and mean values for each species were calculated from 3 replicates. […]
property: fraction unbound at 6 h, 5 µM

[[record]]
molecule_smiles = "[2H]C1([2H])c2ncccc2C(=O)N1Cc1c(F)cc(-c2cccc3nn(C)cc23)cc1F"
reported_result = 0.039

[[record]]
molecule_smiles = "Cn1cc2c(-c3cc(F)c(CN4Cc5ncccc5C4=O)c(F)c3)cccc2n1"
reported_result = 0.059

[[record]]
molecule_smiles = "[2H]C1([2H])c2ncccc2C(=O)N1Cc1c(F)cc(-c2cccc3nn(C([2H])([2H])[2H])cc23)cc1F"
reported_result = 0.044


---

Assay: Dog MTD with pharmacokinetics study
Type: in vivo
Settings: dog MTD, 30 mg/kg PO of 5; plasma
Description: To this end, we prepared a 200 g lot of PAM 5 and performed, in parallel, a dog maximum tolerated dose (MTD) with a pharmacokinetics study and a 14-day rat exploratory toxicology and toxicokinetic study, quantifying plasma Cmax and AUC for both parent 5 and metabolite 6. […] Moreover, while exposure increased with dose, it was nonlinear. […]
property: AUC (ng·h/mL)

[[record]]
compound = "[2H]C1([2H])c2ncccc2C(=O)N1Cc1c(F)cc(-c2cccc3nn(C([2H])([2H])[2H])cc23)cc1F [compound 5]"
reported_result = 34900

[[record]]
compound = "[2H]C1(O)c2ncccc2C(=O)N1Cc1c(F)cc(-c2cccc3nn(C([2H])([2H])[2H])cc23)cc1F (centres unmarked) [compound 6]"
reported_result = 6240


---

molecular target: bile salt export pump (BSEP) (Homo sapiens, UniProt O95342)
Sequence (O95342 whole entry, species assumed): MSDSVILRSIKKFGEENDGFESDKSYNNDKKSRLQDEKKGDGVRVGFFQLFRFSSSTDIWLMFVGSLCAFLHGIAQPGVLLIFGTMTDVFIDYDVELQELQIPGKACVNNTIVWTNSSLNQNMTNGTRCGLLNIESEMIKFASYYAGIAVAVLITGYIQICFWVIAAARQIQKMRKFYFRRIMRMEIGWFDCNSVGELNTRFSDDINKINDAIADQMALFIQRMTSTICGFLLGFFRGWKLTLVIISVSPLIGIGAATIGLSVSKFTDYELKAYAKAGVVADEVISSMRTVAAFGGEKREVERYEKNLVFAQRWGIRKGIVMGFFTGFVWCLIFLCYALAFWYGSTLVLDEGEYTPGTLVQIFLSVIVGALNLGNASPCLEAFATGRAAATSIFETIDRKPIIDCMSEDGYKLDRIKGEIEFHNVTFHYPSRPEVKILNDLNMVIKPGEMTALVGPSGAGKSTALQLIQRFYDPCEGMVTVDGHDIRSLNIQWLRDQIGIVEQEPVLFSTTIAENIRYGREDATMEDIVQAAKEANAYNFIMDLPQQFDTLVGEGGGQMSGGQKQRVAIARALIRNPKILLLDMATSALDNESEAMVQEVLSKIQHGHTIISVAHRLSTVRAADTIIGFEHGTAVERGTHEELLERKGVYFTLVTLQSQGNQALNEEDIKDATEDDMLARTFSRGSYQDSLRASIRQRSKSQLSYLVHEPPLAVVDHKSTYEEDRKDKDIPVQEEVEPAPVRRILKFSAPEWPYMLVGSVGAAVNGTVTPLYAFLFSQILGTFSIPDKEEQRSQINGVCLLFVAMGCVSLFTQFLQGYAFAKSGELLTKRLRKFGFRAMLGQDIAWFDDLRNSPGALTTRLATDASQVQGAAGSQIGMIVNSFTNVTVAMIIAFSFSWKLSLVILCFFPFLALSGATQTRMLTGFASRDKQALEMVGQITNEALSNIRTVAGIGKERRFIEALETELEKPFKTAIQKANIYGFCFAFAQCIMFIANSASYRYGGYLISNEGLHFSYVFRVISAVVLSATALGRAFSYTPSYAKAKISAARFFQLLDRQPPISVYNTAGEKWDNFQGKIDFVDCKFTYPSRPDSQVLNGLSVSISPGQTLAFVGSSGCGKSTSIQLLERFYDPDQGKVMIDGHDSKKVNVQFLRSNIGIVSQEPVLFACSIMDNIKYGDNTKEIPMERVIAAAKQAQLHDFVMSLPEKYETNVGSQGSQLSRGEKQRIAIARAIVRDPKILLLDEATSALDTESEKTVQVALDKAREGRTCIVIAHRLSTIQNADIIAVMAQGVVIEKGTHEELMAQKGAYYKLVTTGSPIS
property: IC50 (µM)

[[record]]
molecule_smiles = "[2H]C1([2H])c2ncccc2C(=O)N1Cc1c(F)cc(-c2cccc3nn(C([2H])([2H])[2H])cc23)cc1F"
tgt = "bile salt export pump (BSEP) (Homo sapiens, UniProt O95342)"
measurement_units = "µM"
reported_result = 42.3


---

Assay: Rat oral dose escalation PK study
Type: in vivo
Settings: Sprague-Dawley, plasma; rat, oral, 30 mg/kg
Protocol: page 9: Brain plasma concentration ratio (Kp) was calculated by dividing brain concentration by plasma concentration for each animal. Unbound brain to unbound plasma concentration ratio (Kp,uu) is calculated using the following formula: Kp,uu = (Brain ng/g x brain fu)/(plasma ng/ml x plasma fu). […] At different times, arterial blood was collected from a femoral artery catheter, and compound concentration was determined in plasma by LC-MS/MS following their non-GLP protocol. […]
property: Cmax

[[record]]
molecule_smiles = "[2H]C1([2H])c2ncccc2C(=O)N1Cc1c(F)cc(-c2cccc3nn(C([2H])([2H])[2H])cc23)cc1F"
reported_result = "6020 ng/mL"


---

assay: Rat oral dose escalation PK study; assay type: in vivo; conditions: Sprague-Dawley, plasma; rat, oral, 10 mg/kg
property: Cmax (ng/mL)

[[record]]
molecule_smiles = "[2H]C1([2H])c2ncccc2C(=O)N1Cc1c(F)cc(-c2cccc3nn(C([2H])([2H])[2H])cc23)cc1F"
measurement_units = "ng/mL"
reported_result = 3380


---

The following compounds are shown together with reported pEC50 values.
molecular target: rM1 (Rattus norvegicus, UniProt P08482); assay: Calcium mobilization, rat M1 (agonist and PAM modes); assay type: cell-based; settings: PAM mode; read-out: rM1 PAM EC50
Sequence (P08482 whole entry): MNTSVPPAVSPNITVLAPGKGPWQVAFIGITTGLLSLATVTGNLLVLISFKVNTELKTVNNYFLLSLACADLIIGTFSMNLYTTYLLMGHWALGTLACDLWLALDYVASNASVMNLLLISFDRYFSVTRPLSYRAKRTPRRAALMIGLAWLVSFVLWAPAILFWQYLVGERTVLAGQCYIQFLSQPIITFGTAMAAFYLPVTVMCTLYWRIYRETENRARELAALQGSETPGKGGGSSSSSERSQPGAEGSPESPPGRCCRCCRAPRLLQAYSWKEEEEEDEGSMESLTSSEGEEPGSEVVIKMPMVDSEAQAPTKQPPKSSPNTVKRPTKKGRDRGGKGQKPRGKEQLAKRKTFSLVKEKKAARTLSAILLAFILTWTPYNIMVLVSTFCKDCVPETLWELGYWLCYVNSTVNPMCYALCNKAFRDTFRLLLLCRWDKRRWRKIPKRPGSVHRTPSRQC
pEC50: −log10 of the molar value.
property: pEC50

[[record]]
molecule_smiles = "[2H]C1([2H])c2ncccc2C(=O)N1Cc1c(F)cc(-c2cccc3nn(C([2H])([2H])[2H])cc23)cc1F"
tgt = "rM1 (Rattus norvegicus, UniProt P08482)"
reported_result = 6.60

[[record]]
molecule_smiles = "Cn1cc2c(-c3cc(F)c(CN4Cc5ncccc5C4=O)c(F)c3)cccc2n1"
tgt = "rM1 (Rattus norvegicus, UniProt P08482)"
reported_result = 6.67

[[record]]
molecule_smiles = "[2H]C1([2H])c2ncccc2C(=O)N1Cc1c(F)cc(-c2cccc3nn(C)cc23)cc1F"
tgt = "rM1 (Rattus norvegicus, UniProt P08482)"
reported_result = 6.44


---

biological target: P-gp (MDR1) (Homo sapiens); construct: host or cells: MDR1-MDCK cell monolayers; assay: MDCK-MDR1 monolayer permeability and efflux; assay type: in vitro ADME; parameters: dose or concentration left out as unconfirmed; details: dog; MDCK-MDR1 efflux ratio; read-out: P-gp ER
Sequence (P08183 whole entry): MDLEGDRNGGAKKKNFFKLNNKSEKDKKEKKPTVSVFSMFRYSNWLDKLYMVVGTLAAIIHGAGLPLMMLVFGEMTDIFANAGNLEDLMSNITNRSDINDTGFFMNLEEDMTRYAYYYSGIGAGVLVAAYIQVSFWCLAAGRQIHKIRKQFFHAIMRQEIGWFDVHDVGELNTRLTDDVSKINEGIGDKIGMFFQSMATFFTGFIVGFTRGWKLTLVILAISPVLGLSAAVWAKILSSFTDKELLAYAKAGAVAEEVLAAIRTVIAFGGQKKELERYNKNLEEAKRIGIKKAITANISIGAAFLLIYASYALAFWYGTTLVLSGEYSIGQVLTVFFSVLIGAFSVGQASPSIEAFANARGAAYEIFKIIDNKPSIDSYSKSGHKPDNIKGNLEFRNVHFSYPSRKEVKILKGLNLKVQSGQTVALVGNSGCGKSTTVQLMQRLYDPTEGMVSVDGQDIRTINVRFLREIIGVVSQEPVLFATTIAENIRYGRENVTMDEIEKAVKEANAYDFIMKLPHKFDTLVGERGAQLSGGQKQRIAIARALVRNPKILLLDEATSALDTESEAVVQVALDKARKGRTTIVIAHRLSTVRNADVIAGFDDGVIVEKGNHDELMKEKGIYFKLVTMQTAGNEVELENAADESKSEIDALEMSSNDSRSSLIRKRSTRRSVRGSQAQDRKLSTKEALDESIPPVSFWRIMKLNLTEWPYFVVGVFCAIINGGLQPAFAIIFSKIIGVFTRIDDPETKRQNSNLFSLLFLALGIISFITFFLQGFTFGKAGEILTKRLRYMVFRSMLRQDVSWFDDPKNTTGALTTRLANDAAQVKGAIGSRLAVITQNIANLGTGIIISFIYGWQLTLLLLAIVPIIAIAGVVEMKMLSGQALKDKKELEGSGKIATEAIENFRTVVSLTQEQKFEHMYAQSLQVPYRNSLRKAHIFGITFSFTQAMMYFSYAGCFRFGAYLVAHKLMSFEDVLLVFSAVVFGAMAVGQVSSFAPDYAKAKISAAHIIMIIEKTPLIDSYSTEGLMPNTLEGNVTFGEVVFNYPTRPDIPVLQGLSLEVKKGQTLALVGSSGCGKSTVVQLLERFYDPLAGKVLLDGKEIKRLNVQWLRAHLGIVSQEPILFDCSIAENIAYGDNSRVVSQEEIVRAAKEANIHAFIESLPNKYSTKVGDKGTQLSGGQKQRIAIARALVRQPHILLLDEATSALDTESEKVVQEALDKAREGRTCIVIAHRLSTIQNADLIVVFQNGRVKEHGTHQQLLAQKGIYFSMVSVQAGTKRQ
property: efflux ratio at 2 h

[[record]]
molecule_smiles = "Cn1cc2c(-c3cc(F)c(CN4Cc5ncccc5C4=O)c(F)c3)cccc2n1"
reported_result = 1.8

[[record]]
molecule_smiles = "[2H]C1([2H])c2ncccc2C(=O)N1Cc1c(F)cc(-c2cccc3nn(C([2H])([2H])[2H])cc23)cc1F"
reported_result = 1.3

[[record]]
molecule_smiles = "[2H]C1([2H])c2ncccc2C(=O)N1Cc1c(F)cc(-c2cccc3nn(C)cc23)cc1F"
reported_result = 1.55


---

The following molecules are shown together with reported pIC50 values.
molecular target: CYP 2D6 (Homo sapiens, UniProt P10635)
Sequence (P10635 whole entry): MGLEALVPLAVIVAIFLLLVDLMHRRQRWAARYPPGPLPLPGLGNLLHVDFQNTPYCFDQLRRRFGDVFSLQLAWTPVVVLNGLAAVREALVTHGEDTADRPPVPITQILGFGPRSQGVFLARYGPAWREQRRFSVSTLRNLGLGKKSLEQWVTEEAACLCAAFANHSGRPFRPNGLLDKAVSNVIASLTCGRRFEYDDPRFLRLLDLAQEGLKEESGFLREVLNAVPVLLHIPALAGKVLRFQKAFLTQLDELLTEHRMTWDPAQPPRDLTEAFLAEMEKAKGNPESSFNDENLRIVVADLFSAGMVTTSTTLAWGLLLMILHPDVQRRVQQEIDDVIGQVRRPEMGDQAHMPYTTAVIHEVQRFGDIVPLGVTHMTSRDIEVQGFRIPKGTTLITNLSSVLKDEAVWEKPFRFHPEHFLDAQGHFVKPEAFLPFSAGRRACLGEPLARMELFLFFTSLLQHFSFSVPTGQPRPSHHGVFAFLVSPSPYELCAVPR
pIC50: −log10 of the molar value.
property: pIC50

[[record]]
molecule_smiles = "Cn1cc2c(-c3cc(F)c(CN4Cc5ncccc5C4=O)c(F)c3)cccc2n1"
property = "pIC50"
reported_result = "< 4.52"

[[record]]
molecule_smiles = "[2H]C1([2H])c2ncccc2C(=O)N1Cc1c(F)cc(-c2cccc3nn(C([2H])([2H])[2H])cc23)cc1F"
property = "pIC50"
reported_result = "< 4.52"

